# Test system: E. coli TESEC Mtb Alr
# method_summary: growth (OD600 after 10 h); higher = more growth (less inhibition)
# cond: arabinose 100000 nM; compound 0.1 mM; raw OD600 reference: median of DMSO wells 0.201, cell-free background 0.041
Structures can show the parent of a compound that is named as a salt.
growth vs 0.2: at or above is label 1, below is label 0.

q: For this compound, is measured growth 0.2 or higher? C[C@]12CC[C@@H](O)C[C@@H]1CC[C@@H]1[C@@H]2CC[C@]2(C)C(=O)CC[C@@H]12
a: label 0

q: For this compound, is measured growth 0.2 or higher? CC(N)C(O)c1ccccc1 (centres undefined) [Phenylpropanolamine hydrochloride]
a: label 1

q: For this compound, is measured growth 0.2 or higher? c1ccc2nc(N3CCNCC3)ccc2c1 [Quipazine dimaleate salt]
a: label 1

q: For this compound, is measured growth 0.2 or higher? CCC1(CC)C(=O)C=CNC1=O
a: label 1

q: For this compound, is measured growth 0.2 or higher? CCC(COC(=O)c1cc(OC)c(OC)c(OC)c1)(c1ccccc1)N(C)C (centres undefined)
a: label 0

q: For this compound, is measured growth 0.2 or higher? COc1cc([C@@H]2c3cc4c(cc3[C@H](O)[C@H]3COC(=O)[C@H]23)OCO4)cc(OC)c1OC
a: label 0

q: For this compound, is measured growth 0.2 or higher? O=C(CCCN1CCC2(CC1)C(=O)NCN2c1ccccc1)c1ccc(F)cc1
a: label 0

q: For this compound, is measured growth 0.2 or higher? CC(=O)OCC(=O)[C@H]1CC[C@H]2[C@@H]3CC[C@H]4C[C@H](O)CC[C@]4(C)[C@H]3C(=O)C[C@]12C [Alfadolone acetate]
a: label 0

q: For this compound, is measured growth 0.2 or higher? COc1ccc(CN2CCNCC2)c(OC)c1OC [Trimetazidine dihydrochloride]
a: label 1

q: For this compound, is measured growth 0.2 or higher? CN1C[C@H](C(=O)N[C@]2(C)O[C@@]3(O)[C@@H]4CCCN4C(=O)[C@H](Cc4ccccc4)N3C2=O)C[C@@H]2c3cccc4[nH]cc(c34)C[C@H]21 [Dihydroergotamine tartrate]
a: label 0

q: For this compound, is measured growth 0.2 or higher? C#CCN(C)[C@H](C)Cc1ccccc1 [Selegiline hydrochloride]
a: label 1

q: For this compound, is measured growth 0.2 or higher? CC(=O)OC1CN2CCC1CC2 (centres undefined) [Aceclidine Hydrochloride]
a: label 1

q: For this compound, is measured growth 0.2 or higher? O[C@@H]1CCCC[C@H]1N1CCC(c2ccccc2)CC1 [L(-)-vesamicol hydrochloride]
a: label 0

q: For this compound, is measured growth 0.2 or higher? CC[N+]1(C)CCCC(OC(=O)C(O)(c2ccccc2)c2ccccc2)C1 (centres undefined) [Pipenzolate bromide]
a: label 0

q: For this compound, is measured growth 0.2 or higher? CC(=O)O[C@H]1C[C@@H]2CC[C@@H]3[C@H](CC[C@@]4(C)[C@H]3C[C@H]([N+]3(C)CCCCC3)[C@@H]4OC(C)=O)[C@@]2(C)C[C@@H]1[N+]1(C)CCCCC1 [Pancuronium bromide]
a: label 0

q: For this compound, is measured growth 0.2 or higher? O=c1[nH]c2ccccc2n1CCCN1CCC(n2c(=O)[nH]c3cc(Cl)ccc32)CC1
a: label 0

q: For this compound, is measured growth 0.2 or higher? CN[C@@H]1[C@@H](O)[C@@H](O[C@@H]2[C@@H](O)[C@H](O[C@H]3O[C@H](CN)CC[C@H]3N)[C@@H](N)C[C@H]2N)OC[C@]1(C)O.CN[C@@H]1[C@@H](O)[C@@H](O[C@@H]2[C@@H](O)[C@H](O[C@H]3O[C@H]([C@@H](C)N)CC[C@H]3N)[C@@H](N)C[C@H]2N)OC[C@]1(C)O.CN[C@@H]1[C@@H](O)[C@@H](O[C@@H]2[C@@H](O)[C@H](O[C@H]3O[C@H]([C@@H](C)NC)CC[C@H]3N)[C@@H](N)C[C@H]2N)OC[C@]1(C)O [Gentamicine sulfate]
a: label 0

q: For this compound, is measured growth 0.2 or higher? Oc1cc(Cl)ccc1Oc1ccc(Cl)cc1Cl
a: label 0

q: For this compound, is measured growth 0.2 or higher? C[C@]12Cc3c[nH]nc3C[C@@H]1CC[C@@H]1[C@@H]2CC[C@@]2(C)[C@H]1CC[C@]2(C)O
a: label 0

q: For this compound, is measured growth 0.2 or higher? CN1[C@@H]2CC[C@H]1C[C@@H](OC(=O)[C@H](CO)c1ccccc1)C2
a: label 1

q: For this compound, is measured growth 0.2 or higher? C[C@]12N[C@H](Cc3ccccc31)c1ccccc12 [Dizocilpine maleate]
a: label 0

q: For this compound, is measured growth 0.2 or higher? CC(C)c1c(CN(C)C(C)Cc2ccccc2)n(C)n(-c2ccccc2)c1=O (centres undefined)
a: label 0

q: For this compound, is measured growth 0.2 or higher? O=P1(N(CCCl)CCCl)NCCCO1 (centres undefined) [Cyclophosphamide]
a: label 0

q: For this compound, is measured growth 0.2 or higher? CC(=O)OCC1=C(C(=O)O)N2C(=O)[C@@H](N)[C@H]2SC1
a: label 1

q: For this compound, is measured growth 0.2 or higher? C[C@@H]1CN([C@H]2CC[C@](C#N)(c3ccc(F)cc3)CC2)CC[C@]1(C(=O)O)c1ccccc1 [Levocabastine hydrochloride]
a: label 0
